The reported numbers originate from patent EP4772535A1.

Recorded Top (MFI) by entry
- System Under Test: T1, ROR1 naturally expressed on human tumor cell lines (A549, Jeko-1, SW620, PA-1) (human, UniProt Q01973 30-937)
- T1 construct: whole, on cells; also called cells expressing ROR1
- T1 sequence (Q01973 30-937): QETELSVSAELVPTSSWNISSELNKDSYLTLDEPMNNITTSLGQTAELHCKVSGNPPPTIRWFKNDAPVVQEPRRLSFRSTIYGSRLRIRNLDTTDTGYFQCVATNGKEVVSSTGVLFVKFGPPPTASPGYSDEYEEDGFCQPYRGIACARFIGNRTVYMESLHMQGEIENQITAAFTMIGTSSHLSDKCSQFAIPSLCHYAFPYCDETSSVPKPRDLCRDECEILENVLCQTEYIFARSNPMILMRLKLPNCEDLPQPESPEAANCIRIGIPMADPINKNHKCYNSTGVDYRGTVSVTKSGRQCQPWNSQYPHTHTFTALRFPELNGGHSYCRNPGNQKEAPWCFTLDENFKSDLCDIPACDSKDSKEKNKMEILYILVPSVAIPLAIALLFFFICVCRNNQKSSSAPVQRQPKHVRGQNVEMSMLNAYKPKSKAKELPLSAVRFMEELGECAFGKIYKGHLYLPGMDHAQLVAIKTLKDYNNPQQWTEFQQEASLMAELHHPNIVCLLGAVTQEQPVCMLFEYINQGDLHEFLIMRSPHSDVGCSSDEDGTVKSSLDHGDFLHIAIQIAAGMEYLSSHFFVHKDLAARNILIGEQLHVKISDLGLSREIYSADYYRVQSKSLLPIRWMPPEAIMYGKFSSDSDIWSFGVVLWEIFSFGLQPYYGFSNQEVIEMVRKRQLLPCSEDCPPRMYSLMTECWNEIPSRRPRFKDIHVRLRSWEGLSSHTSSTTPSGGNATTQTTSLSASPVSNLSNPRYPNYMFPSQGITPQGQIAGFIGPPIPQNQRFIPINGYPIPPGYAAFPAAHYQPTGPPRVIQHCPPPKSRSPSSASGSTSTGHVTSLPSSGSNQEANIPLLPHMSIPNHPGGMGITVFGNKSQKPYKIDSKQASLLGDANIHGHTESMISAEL
- Assay Comment: FACS on PA-1 cells naturally expressing ROR1
Give just the numeric value; MFI need not be written.

What measured Top (MFI) goes with hz29H5D8-3.2 (antibody, human IgG1, kappa, V domains shown, Humanized, human IgG1/kappa) VH: QVQLVQSGAEVKKPGSSVKVSCKASGYTFTNYGISWVRQAPGQGLEWMGEIYPRSVNTYYSAKFKGRVTITADKSTSTAYMELSSLRSEDTAVYYCARHYYGSSLDYWGQGTLVTVSS VL: DIQMTQSPSSLSASVGDRVTITCITSSDIEDDMNWYQQKPGKAPKLLISEGNSLRPGVPSRFSSSGYGTDFTFTISSLQPEDIATYYCLQSDNIFTFGQGTKVEIKR ?
244000

What measured Top (MFI) goes with UC-961 (antibody, V domains shown) VH: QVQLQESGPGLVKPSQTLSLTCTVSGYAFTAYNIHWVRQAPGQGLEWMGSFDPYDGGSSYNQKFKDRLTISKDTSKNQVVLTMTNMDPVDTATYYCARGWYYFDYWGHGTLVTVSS VL: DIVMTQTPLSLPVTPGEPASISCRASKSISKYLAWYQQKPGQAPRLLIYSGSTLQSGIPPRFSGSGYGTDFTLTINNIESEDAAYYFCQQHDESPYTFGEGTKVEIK ?
235000

What measured Top (MFI) goes with hz29H5D8-3.1 (antibody, human IgG1, kappa, V domains shown, Humanized, human IgG1/kappa) VH: QVQLVQSGAEVKKPGSSVKVSCKASGYTFTNYGISWVRQAPGQGLEWMGEIYPRSVNTYYAQKFQGRVTITADKSTSTAYMELSSLRSEDTAVYYCARHYYGSSLDYWGQGTLVTVSS VL: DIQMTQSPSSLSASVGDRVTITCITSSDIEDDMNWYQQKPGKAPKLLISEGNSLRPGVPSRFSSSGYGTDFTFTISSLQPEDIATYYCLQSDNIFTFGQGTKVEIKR ?
247000

What measured Top (MFI) goes with hz29H5D8-2.1 (antibody, human IgG1, kappa, V domains shown, Humanized, human IgG1/kappa) VH: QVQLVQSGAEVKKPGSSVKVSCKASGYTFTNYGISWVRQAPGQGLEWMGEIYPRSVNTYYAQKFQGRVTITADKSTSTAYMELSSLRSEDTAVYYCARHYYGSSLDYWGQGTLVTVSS VL: DIQMTQSPSSLSASVGDRVTITCITSSDIEDDMNWYQQKPGKAPKLLIYEGNSLRPGVPSRFSSSGYGTDFTFTISSLQPEDIATYYCLQSDNIFTFGQGTKVEIKR ?
239000
